- Experimental Target: … (SEQ ID NO: 1)-HLA-A*02 complex presented on antigen positive cancer cells (human)
- Assay Method Text: cell-based or functional assay
Outcome Measure: EC50 (mel624), IFN-γ ELISPOT, activation of redirected T cells (nM)
Respond with the bare value in nM.

Solved cases below.
binder="ImmTAC molecule comprising a79 (SEQ ID NO: 7) and b77 (SEQ ID NO: 18) (TCR, part only; not given: anti-CD3 scFv, linker, TCR constants, part only) TCR alpha, part: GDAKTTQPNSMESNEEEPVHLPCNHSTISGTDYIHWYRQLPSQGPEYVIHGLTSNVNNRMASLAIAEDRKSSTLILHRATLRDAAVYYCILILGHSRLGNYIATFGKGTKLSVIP TCR beta, part: DGGITQSPKYLFRKEGQNVTLSCEQNLNHDAMYWYRQDPGQGLRLIYYSQIMGDEQKGDIAEGYSVSREKKESFPLTVTSAQKNPTAFYLCASSWWTGGAAPIRFGPGTRLTVT" recorded_value=0.0138
binder="ImmTAC molecule comprising a79 (SEQ ID NO: 7) and b63 (SEQ ID NO: 22) (TCR, part only; not given: anti-CD3 scFv, linker, TCR constants, part only) TCR alpha, part: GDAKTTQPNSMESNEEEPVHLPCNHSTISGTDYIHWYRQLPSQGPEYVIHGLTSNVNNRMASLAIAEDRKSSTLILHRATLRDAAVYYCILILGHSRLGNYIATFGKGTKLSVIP TCR beta, part: DGGITQSPKYLFRKEGQNVTLSCEQNLNHDAMYWYRQDPGQGLRLIYYSQIVGDEQKGDIAEGYSVSREKKESFPLTVTSAQKNPTAFYLCASSWWTGGSAPIRFGPGTRLTVT" recorded_value=0.0229
binder="ImmTAC molecule comprising a79 (SEQ ID NO: 7) and b58 (SEQ ID NO: 21) (TCR, part only; not given: anti-CD3 scFv, linker, TCR constants, part only) TCR alpha, part: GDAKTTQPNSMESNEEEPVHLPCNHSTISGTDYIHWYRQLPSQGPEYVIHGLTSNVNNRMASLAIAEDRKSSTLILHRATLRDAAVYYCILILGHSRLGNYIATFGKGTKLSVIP TCR beta, part: DGGITQSPKYLFRKEGQNVTLSCEQNLNHDAMYWYRQDPGQGLRLIYYSQIMGDEQKGDIAEGYSVSREKKESFPLTVTSAQKNPTAFYLCASSWWTGGSSPISFGPGTRLTVT" recorded_value=0.0106
binder="ImmTAC molecule comprising a79 (SEQ ID NO: 7) and b64 (SEQ ID NO: 12) (TCR, part only; not given: anti-CD3 scFv, linker, TCR constants, part only) TCR alpha, part: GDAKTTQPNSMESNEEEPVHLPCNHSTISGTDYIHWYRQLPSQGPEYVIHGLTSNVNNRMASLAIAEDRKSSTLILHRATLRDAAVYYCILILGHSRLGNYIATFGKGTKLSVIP TCR beta, part: DGGITQSPKYLFRKEGQNVTLSCEQNLNHDAMYWYRQDPGQGLRLIYYSQIMNDEQKGDIAEGYSVSREKKESFPLTVTSAQKNPTAFYLCASSWWTGGSAPIRFGPGTRLTVT" recorded_value=0.0275
binder="ImmTAC molecule comprising a79 (SEQ ID NO: 7) and b73 (SEQ ID NO: 16) (TCR, part only; not given: anti-CD3 scFv, linker, TCR constants, part only) TCR alpha, part: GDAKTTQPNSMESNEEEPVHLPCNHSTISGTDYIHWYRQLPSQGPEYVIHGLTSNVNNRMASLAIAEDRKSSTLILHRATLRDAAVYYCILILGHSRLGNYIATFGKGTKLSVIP TCR beta, part: DGGITQSPKYLFRKEGQNVTLSCEQNLNHDAMYWYRQDPGQGLRLIYYSQIMGDEQKGDIAEGYSVSREKKESFPLTVTSAQKNPTAFYLCASSWWTGGAAPISFGPGTRLTVT" recorded_value=0.0231

Now take the following binder into account.
Field EC50 (mel624), IFN-γ ELISPOT, activation of redirected T cells (entry ImmTAC molecule comprising a28 (SEQ ID NO: 6) and b74 (SEQ ID NO: 17) (TCR, part only; not given: anti-CD3 scFv, linker, TCR constants, part only) TCR alpha, part: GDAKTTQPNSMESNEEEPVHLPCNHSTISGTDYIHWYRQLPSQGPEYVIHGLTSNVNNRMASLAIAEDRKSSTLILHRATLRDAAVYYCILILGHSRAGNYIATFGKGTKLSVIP TCR beta, part: DGGITQSPKYLFRKEGQNVTLSCEQNLNHDAMYWYRQDPGQGLRLIYYSQIMGDEQKGDIAEGYSVSREKKESFPLTVTSAQKNPTAFYLCASSWWTGGASPIRFGPGTRLTVT ) reads 0.0243
